system-tested: recombinant human GALK1 (Homo sapiens, UniProt P51570)
Sequence (P51570 whole entry): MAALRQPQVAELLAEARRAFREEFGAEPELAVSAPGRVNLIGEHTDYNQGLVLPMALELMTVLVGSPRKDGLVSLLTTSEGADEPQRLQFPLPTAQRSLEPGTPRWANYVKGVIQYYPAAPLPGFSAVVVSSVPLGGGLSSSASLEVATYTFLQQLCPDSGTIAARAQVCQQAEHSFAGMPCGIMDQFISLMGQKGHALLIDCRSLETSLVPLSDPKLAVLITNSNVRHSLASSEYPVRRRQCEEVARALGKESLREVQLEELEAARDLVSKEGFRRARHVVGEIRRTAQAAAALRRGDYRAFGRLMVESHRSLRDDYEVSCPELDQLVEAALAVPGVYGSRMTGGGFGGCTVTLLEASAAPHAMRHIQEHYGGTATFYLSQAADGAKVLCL
experiment: GALK1 biochemical assay
study-conditions: ratio of GALK1 IC50 vs 2
recorded-metric: fold improvement in potency compared to compound 2

CC1=C(C(=O)NCc2cn(C)cn2)C(c2ccccc2Cl)N=C(Nc2nc3ccccc3o2)N1 (centres unmarked)
7–9 fold
CC1=C(C(=O)Nc2cccc(C(=O)O)c2)C(c2ccccc2Cl)N=C(Nc2nc3ccccc3o2)N1 (centres unmarked)
> 5 fold
CC1=C(C(=O)NCc2cnn(C)c2)C(c2ccccc2Cl)N=C(Nc2nc3ccccc3o2)N1 (centres unmarked)
7–9 fold

Prompt: I have this molecule here, CC1=C(C(=O)Nc2ccc(C(=O)O)cc2)C(c2ccccc2Cl)N=C(Nc2nc3ccccc3o2)N1 (centres unmarked) , and I need its recorded fold improvement in potency compared to compound 2.
Response: > 5 fold

Prompt: Please give the measured fold improvement in potency compared to compound 2 for this molecule: CC1=C(C(=O)Nc2cc(C(=O)O)ccn2)C(c2ccccc2Cl)N=C(Nc2nc3ccccc3o2)N1 (centres unmarked)
Response: 10 fold

###

experiment: Human liver microsome stability
Assay type: in vitro ADME
study-conditions: liver microsomes, pH 7.4
recorded-metric: half-life at 1 μM (min)
Write the value in min as a bare number.

Prompt: State the recorded half-life at 1 μM for this entry: CC1=C(C(=O)NCc2cnn(C)c2)C(c2ccc(C)cc2Cl)N=C(Nc2nc3ccc(F)c(N)c3o2)N1 (stereo not shown) [Compound 68]
Response: 47

###

experiment: Parallel artificial membrane permeability assay
Type: in vitro ADME
study-conditions: pH 7.4
Below: a set of entries, each annotated with reported PAMPA.

Prompt: Requested read-out: PAMPA. Entry: CC1=C(C(=O)NCc2cnn(C)c2)C(c2ccc(C)cc2Cl)N=C(Nc2nc3ccc(F)c(N)c3o2)N1 (stereo not drawn)
Response: 485 10^−6 cm/s

Prompt: Need PAMPA of CCn1cc(CNC(=O)C2=C(C)NC(Nc3nc4cccc(N)c4o3)=NC2c2ccc(C)cc2Cl)cn1 (stereo not drawn) , thanks.
Response: 632 10^−6 cm/s

Prompt: Entry under review: CCn1cc(CNC(=O)C2=C(C)NC(Nc3nc4ccc(F)c(N)c4o3)=NC2c2ccc(C)cc2Cl)cn1 (stereo not drawn) . Reported PAMPA?
Response: 410 10^−6 cm/s

Prompt: So what's the measured PAMPA for this one? CC1=C(C(=O)NCc2cnn(C)c2)[C@H](c2ccc(C)cc2Cl)N=C(Nc2nc3cccc(N)c3o2)N1 [Compound (R)-67]
Response: 661 10^−6 cm/s

Prompt: If you can, please state the reported PAMPA value of CCn1cc(CNC(=O)C2=C(C)NC(Nc3nc4ccc(F)c(N)c4o3)=N[C@@H]2c2ccc(C)cc2Cl)cn1 [Compound (S)-70] .
Response: 407 10^−6 cm/s

Prompt: Give the measured PAMPA of CCn1cc(CNC(=O)C2=C(C)NC(Nc3nc4ccc(F)c(N)c4o3)=N[C@H]2c2ccc(C)cc2Cl)cn1 [Compound (R)-70] .
Response: 773 10^−6 cm/s
